Taken from patent US20100172907A1.

Quick reference: OD ratio 17-22/BSA of the listed items.
Study target: T1, BSA-conjugated Aβ heptapeptide LVFFAEC (reading uncertain; also: BSA conjugate);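 note: ELISA of antibody at 10 or 2 µg/ml binding plate-coated BSA–peptide conjugates, detected with HRP anti-human Ig and TMB colour, mock-treated BSA without peptide as negative control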
T1 construct: also called Peptide 17-22
T1 peptide: LVFFAEC([NSMP-BSA])
Assay summary: ELISA
Groups on a side chain read outwards from the residue. No end group written: not given here. NSMP = not defined here
Form rule: numeric answer, no unit written next to it.

// below: answered binders
{"Binder": "MS-Roche #7.2.H2 Fab (Fab, V domains shown) VH: QVQLVESGGGLVQPGGSLRLSCAASGFTFSSYAMSWVRQAPGKGLEWVSAINGTGMKKYYADSVKGRFTISRDNSKNTLYLQMNSLRAEDTAVYYCARGKGNTHKPYGYVRYFDVWGQGTLVTVSS VL: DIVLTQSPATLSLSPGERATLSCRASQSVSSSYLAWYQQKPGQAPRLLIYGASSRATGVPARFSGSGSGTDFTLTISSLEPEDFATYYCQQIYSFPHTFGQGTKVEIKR", "OD ratio 17-22/BSA": 10}
{"Binder": "MS-Roche #7.9.H4 Fab (Fab, V domains shown, assembled) VH: QVQLVESGGGLVQPGGSLRLSCAASGFTFSSYAMSWVRQAPGKGLEWVSAINAVGMKKFYADSVKGRFTISRDNSKNTLYLQMNSLRAEDTAVYYCARGKGNTHKPYGYVRYFDVWGQGTLVTVSS VL: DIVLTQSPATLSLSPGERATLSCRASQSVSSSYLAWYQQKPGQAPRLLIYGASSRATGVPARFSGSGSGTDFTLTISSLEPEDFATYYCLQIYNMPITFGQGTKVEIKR", "OD ratio 17-22/BSA": 10}
{"Binder": "MS-Roche #7.2.H1 Fab (Fab, V domains shown) VH: QVQLVESGGGLVQPGGSLRLSCAASGFTFSSYAMSWVRQAPGKGLEWVSAINANGLKKYYADSVKGRFTISRDNSKNTLYLQMNSLRAEDTAVYYCARGKGNTHKPYGYVRYFDVWGQGTLVTVSS VL: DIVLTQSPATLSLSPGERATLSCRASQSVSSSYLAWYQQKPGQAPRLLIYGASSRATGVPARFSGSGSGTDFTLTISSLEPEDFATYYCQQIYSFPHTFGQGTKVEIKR", "OD ratio 17-22/BSA": 8}
{"Binder": "MS-Roche #7.2.H4 Fab (Fab, V domains shown) VH: QVQLVESGGGLVQPGGSLRLSCAASGFTFSSYAMSWVRQAPGKGLEWVSAINSKGSRIYYADSVKGRFTISRDNSKNTLYLQMNSLRAEDTAVYYCARGKGNTHKPYGYVRYFDVWGQGTLVTVSS VL: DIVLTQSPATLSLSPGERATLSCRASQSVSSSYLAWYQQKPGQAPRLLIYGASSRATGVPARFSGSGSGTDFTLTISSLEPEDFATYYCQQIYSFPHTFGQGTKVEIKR", "OD ratio 17-22/BSA": 12}
{"Binder": "MS-Roche #7.12 Fab (Fab, V domains shown) VH: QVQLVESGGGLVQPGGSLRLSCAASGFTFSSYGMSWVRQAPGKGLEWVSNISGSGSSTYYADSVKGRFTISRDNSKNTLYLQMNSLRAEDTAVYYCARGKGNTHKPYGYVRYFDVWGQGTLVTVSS VL: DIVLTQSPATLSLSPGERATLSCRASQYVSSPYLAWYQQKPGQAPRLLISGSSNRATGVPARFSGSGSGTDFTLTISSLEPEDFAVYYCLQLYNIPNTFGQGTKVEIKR", "OD ratio 17-22/BSA": 6}

--- query ---
Entry MS-Roche #7.11.H1 Fab (Fab, V domains shown) VH: QVQLVESGGGLVQPGGSLRLSCAASGFTFSSYAMSWVRQAPGKGLEWVSGINAAGFRTYYADSVKGRFTISRDNSKNTLYLQMNSLRAEDTAVYYCARGKGNTHKPYGYVRYFDVWGQGTLVTVSS VL: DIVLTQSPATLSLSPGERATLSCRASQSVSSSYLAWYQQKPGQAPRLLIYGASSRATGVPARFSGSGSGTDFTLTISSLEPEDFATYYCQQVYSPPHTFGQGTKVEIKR ; OD ratio 17-22/BSA = 8
